# STUDY_SYSTEM: T1, soluble extracellular domain of human IL-5 receptor alpha subunit (sIL-5Rα) (human, UniProt Q01344)
# T1 construct: human IL-5 receptor alpha subunit (IL-5Rα, CD125), extracellular domain, residues 21–333; subcloned from a cDNA of residues 1–420; Expressed from the pSecTag2A vector; migrates at ~50 kDa (glycosylated); A biotinylated form (BirA) was used only for library screening; also called sIL-5α; CD125; source: HEK293F, transiently transfected, purified (Ni-NTA); not shown: Avi, C-terminal, kept; His6, …
# T1 sequence (Q01344 21-333): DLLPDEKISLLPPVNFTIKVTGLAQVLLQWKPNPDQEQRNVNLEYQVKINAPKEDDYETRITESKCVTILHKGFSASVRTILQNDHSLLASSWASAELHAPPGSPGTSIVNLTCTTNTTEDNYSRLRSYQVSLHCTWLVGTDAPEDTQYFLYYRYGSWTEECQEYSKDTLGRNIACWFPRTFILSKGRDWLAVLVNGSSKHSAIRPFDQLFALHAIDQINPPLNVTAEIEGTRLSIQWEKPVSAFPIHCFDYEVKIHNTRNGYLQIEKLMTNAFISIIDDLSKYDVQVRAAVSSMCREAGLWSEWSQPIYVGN
# PROTOCOL_DETAILS: BLI; Octet QKe, 30°C, 1× kinetics buffer in PBS pH 7.4; Ab immobilised on anti-human IgG Fc capture (AHC) biosensors, sIL-5Rα as analyte; association 300 s, dissociation 600 s; 1:1 binding model
# CONDITIONS: both partners purified
# key: entry, value: kon
Entry rule: numbers only, all in M⁻¹ s⁻¹.

{"BINDER": "5R86 (antibody, V domains shown, Human IgG1, kappa; selected as scFab by yeast display from the hu2B7 VH-CDR2 library; source: HEK293F, purified (Protein A)) VH: QVQLVQSGAEVKKPGSSVKVSCKASGYTFTSYWINWVRQAPGQGLEWIGHIYPTSSVKFYNNKFKDKATLTVDKSTNTAYMELSSLRSEDTAVYYCTRDYYGRSYYYAMDYWGQGTTLTVSS VL: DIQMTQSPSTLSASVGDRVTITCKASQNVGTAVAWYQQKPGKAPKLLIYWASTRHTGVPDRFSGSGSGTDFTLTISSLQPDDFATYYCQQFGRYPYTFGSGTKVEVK", "kon / M⁻¹ s⁻¹": 25400}

Query string: Dear colleague, I am looking for the recorded kon of the following binder: 5R65.10 (antibody, V domains shown, as the VH of m6 (5R65) with mutations in VH-CDR3 (Kabat residues 95–100d were randomised); no mutations in VL-CDR3; Human IgG1, kappa; selected as scFab by yeast display from the 5R65 CDR3 library under kinetic screening; source: HEK293F, purified (Protein A)) VH: QVQLVQSGAEVKKPGSSVKVSCKASGYTFTSYWINWVRQAPGQGLEWIGHIYPNKNENYYNHKFKDKATLTVDKSTNTAYMELSSLRSEDTAVYYCTREYYGRSYYAAMDYWGQGTTLTVSS VL: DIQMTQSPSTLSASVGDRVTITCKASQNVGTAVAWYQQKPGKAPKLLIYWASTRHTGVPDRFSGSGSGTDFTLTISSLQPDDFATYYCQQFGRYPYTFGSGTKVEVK
Result string: 24400

Query string: Give the measured kon of 5R65.39 (antibody, V domains shown, as the VH of m6 (5R65) with mutations in VH-CDR3 (Kabat residues 95–100d were randomised); no mutations in VL-CDR3; Human IgG1, kappa; selected as scFab by yeast display from the 5R65 CDR3 library under kinetic screening; source: HEK293F, purified (Protein A)) VH: QVQLVQSGAEVKKPGSSVKVSCKASGYTFTSYWINWVRQAPGQGLEWIGHIYPNKNENYYNHKFKDKATLTVDKSTNTAYMELSSLRSEDTAVYYCTREFYGRSRYSAMDYWGQGTTLTVSS VL: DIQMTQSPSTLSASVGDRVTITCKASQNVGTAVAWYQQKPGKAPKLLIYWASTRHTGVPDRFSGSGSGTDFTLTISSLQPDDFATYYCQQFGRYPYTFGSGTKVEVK .
Result string: 28000

Query string: Look up kon: m2B7 murine anti–IL-5Rα antibody (antibody, V domains shown, VH of murine m2B7; FRs of mouse germline IGHV1-61*01; VL of murine m2B7; FRs of mouse germline IGKV6-23*01; source: hybridoma supernatant, expanded and purified) VH: QVQLQQPGAELVRPGASVKLSCKASGYTFTSYWINWVKQRPGQGLEWIGHIYPSESYTNYNQKFKDKATLTVDKSSSTAYMQLSSPTSEDSAVYYCTRDYYGRSYYYAMDYWGQGTSVTVSS VL: DIVMTQSHKFMSTSVGDRVSITCKASQNVGTAVAWYQQKPGQSPKLLIYWASTRHTGVPDRFTGSGSGTDFTFTISNVQSEDLADYFCQQFGRYPYTFGGGTKLEIK
Result string: 20700

Query string: I have this binder here, 5R65 (antibody, V domains shown, Human IgG1, kappa; selected as scFab by yeast display from the hu2B7 VH-CDR2 library; also called 5R65 Ab; source: HEK293F, purified (Protein A)) VH: QVQLVQSGAEVKKPGSSVKVSCKASGYTFTSYWINWVRQAPGQGLEWIGHIYPNKNENYYNHKFKDKATLTVDKSTNTAYMELSSLRSEDTAVYYCTRDYYGRSYYYAMDYWGQGTTLTVSS VL: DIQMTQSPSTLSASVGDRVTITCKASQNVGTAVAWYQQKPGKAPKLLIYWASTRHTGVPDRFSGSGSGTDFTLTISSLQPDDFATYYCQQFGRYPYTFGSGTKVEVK , and I need its recorded kon.
Result string: 22700

Query string: // kon lookup, key: 5R65.14 (antibody, V domains shown, as the VH of m6 (5R65) with mutations in VH-CDR3 (Kabat residues 95–100d were randomised); no mutations in VL-CDR3; Human IgG1, kappa; selected as scFab by yeast display from the 5R65 CDR3 library under kinetic screening; source: HEK293F, purified (Protein A)) VH: QVQLVQSGAEVKKPGSSVKVSCKASGYTFTSYWINWVRQAPGQGLEWIGHIYPNKNENYYNHKFKDKATLTVDKSTNTAYMELSSLRSEDTAVYYCTREHYGRPYYNAMDYWGQGTTLTVSS VL: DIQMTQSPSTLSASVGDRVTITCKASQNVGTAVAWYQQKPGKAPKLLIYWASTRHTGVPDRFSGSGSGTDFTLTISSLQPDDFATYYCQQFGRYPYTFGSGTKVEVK
Result string: 23000
